These data points were gathered from patent US20080227763A1.

test: Solubility of nomegestrol acetate in solvent mixtures; type: physicochemical; details: 95° ethanol/water binary mixture, aqueous with cosolvent or surfactant or cyclodextrin, 95° ethanol/water binary mixture, 50% 95° ethanol; read-out: Solubility of nomegestrol acetate
ASSAY_READOUT: solubility (µg/mL)
Give bare numbers, in µg/mL.

Query string: Give solubility for CC(=O)O[C@]1(C(C)=O)CC[C@H]2[C@@H]3C=C(C)C4=CC(=O)CC[C@@H]4[C@H]3CC[C@@]21C [nomegestrol acetate]
Result string: 7330

----------
assay: Solubility of nomegestrol acetate in solvent mixtures; assay type: physicochemical; conditions: ethanol/water/propyleneglycol ternary mixture, aqueous with cosolvent or surfactant or cyclodextrin, System I (Ethanol 95° 30%/Demineralized water 70%), 20% propyleneglycol; read-out: Solubilities
ASSAY_READOUT: solubility (µg/mL)
Give bare numbers, in µg/mL.

Query string: Give solubility for CC(=O)O[C@]1(C(C)=O)CC[C@H]2[C@@H]3C=C(C)C4=CC(=O)CC[C@@H]4[C@H]3CC[C@@]21C [nomegestrol acetate]
Result string: 1500
